Origin of the recorded values: BindingDB's records for doi:10.7270/Q23T9FMP

# Target entity: Steroidogenic factor 1 (Homo sapiens)
# Sequence (Q13285 whole entry, the tested form may be a part): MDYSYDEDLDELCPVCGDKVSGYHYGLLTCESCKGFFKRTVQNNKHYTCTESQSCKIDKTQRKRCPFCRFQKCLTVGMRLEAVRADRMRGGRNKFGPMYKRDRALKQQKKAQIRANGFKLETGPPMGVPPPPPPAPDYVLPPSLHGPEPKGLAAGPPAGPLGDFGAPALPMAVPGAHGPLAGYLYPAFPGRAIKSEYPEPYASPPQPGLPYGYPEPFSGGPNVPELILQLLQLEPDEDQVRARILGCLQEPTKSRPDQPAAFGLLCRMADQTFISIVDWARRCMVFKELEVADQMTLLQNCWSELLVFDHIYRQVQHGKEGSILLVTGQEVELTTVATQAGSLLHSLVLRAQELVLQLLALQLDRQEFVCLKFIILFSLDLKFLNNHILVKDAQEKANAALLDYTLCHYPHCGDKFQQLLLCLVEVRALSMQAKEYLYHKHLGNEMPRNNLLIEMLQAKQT
# Test protocol: activation of SF-1 LBD reporter – cell-based, CHO-K1, Gal4-SF-1 LBD, luciferase luminescence, dose response (AID 692)
pEC50: −log10 of the molar value.
Values of pEC50 greater than or equal to 6 map to 1; values below map to -1.

Prompt: Is reported pEC50 greater than or equal to 6 here: CCn1c(SCC(=O)c2cccs2)nnc1-c1ccco1
Response: -1

Prompt: Given CC(=O)c1cccc(NC(=O)c2cnn3ccccc23)c1 , state whether its pEC50 is at least 6.
Response: -1

Prompt: Record C=CCn1c(C)cc(C(=O)CSc2nc(O)c3ccccc3n2)c1C ; criterion: pEC50 no lower than 6. Met?
Response: 1

Prompt: // inclusive: pEC50 at least 6? input: CC(=N)C(C#N)C(=O)CSc1ccc2c(c1)OCCO2 (stereo unspecified)
Response: -1

Prompt: hey, is pEC50 for this one >= 6? COc1cccc(C(=O)Nc2cccc(-c3nnc(-c4ccccc4)o3)c2)c1
Response: -1

Prompt: Item COc1ccc(CNC(=O)NC2CCCCC2)cc1 with pEC50 of 6 or above?
Response: -1

Prompt: Is pEC50 at least 6? Consider O=C(COc1ncnc2ccccc12)c1ccc2c(c1)OCCO2
Response: 1

Prompt: Is pEC50 for CCCOC(=O)c1ccc(NC(=O)C2CCCO2)cc1 (stereo unspecified) at or above 6?
Response: -1

Prompt: Is the recorded value of pEC50 equal to or greater than 6 for this compound? CCc1ccc(C(=O)NCc2cccs2)s1
Response: -1
